- TEST NAME: In vitro antioxidant activity (DPPH test)
- Type: biochemical
- RECORDED CONDITIONS: 5.10^-5 M, 50 µM
Mark each entry class 1 if its Variat. (%) of absorbancies sits below -50%, and class 0 for all others.

Sample answers from the record:
COC(=O)[C@H](CS)NC(=O)[C@@H]1CCC(=S)N1 [Id] : class 1
N[C@@H](CS)C(=O)O [L-cysteine] : class 1
CC(=O)N[C@@H](CS)C(=O)O [N-acetyl-L-cysteine] : class 0

Consider now this further molecule.
Prompt: In the record for O=C(O)[C@H](CS)NC(=O)[C@@H]1CCC(=S)N1 [Ie, N-(5-thioxo-L-prolyl)-L-cysteine] , is Variat. (%) of absorbancies less than -50%?
Completion: class 1

Values from patent US5254579A
